Substrate: p-NP-C4
RECORDED_CONDITIONS: pH 7; 37 °C
REPORTED_ENDPOINT: kcat/Km
Answer with the value and then the unit.

Worked cases, answers included:
Problem: Form field: reported kcat/Km of unnamed (protein) MMNFNNVFRWHLPFLFLVLLTFRAAAADTLLILGDSLSAGYRMSASAAWPALLNDKWQSKTSVVNASISGDTSQQGLARLPALLKQHQPRWVLVELGGNDGLRGFQPQQTEQTLRQILQDVKAANAEPLLMQIRLPANYGRRYNEAFSAIYPKLAKEFDVPLLPFFMEEVYLKPQWMQDDGIHPNRDAQPFIADWMAKQLQPLVNHDS
Result: 17600 s⁻¹ M⁻¹

Problem: Reported kcat/Km, protein unnamed (protein) MMNFNNVFRWHLPFLFLVLLTFRAAAADTLLILGDSLSAGYRMSASAAWPALLNDKWQSKTSVVNASISGDTSQQGLARLPALLKQHQPRWVLVELGGNDGLRGFQPQQTEQTLRQILQDVKAANAEPLLMQIRLPANYGRRYNEAFSAIYPKLAKEFDVPLLPFFMEEVYLKPQWMQDDGIAPNRDAQPFIADWMAKQLQPLVNHDS : ____
Result: 15.2 s⁻¹ M⁻¹

In the following, a different protein is considered.
Problem: # get_value(readout='kcat/Km', item= unnamed (protein) MMNFNNVFRWHLPFLFLVLLTFRAAAADTLLILGDSLSAGYRMSASAAWPALLNDKWQSKTSVVNASISGDTSQQGLARLPALLKQHQPRWVLVELGGADGLRGFQPQQTEQTLRQILQDVKAANAEPLLMQIRLPANYGRRYNEAFSAIYPKLAKEFDVPLLPFFMEEVYLKPQWMQDDGIHPNRDAQPFIADWMAKQLQPLVNHDS )
Result: 7220 s⁻¹ M⁻¹

Origin of measurements: the PETadex activity labels (doi:10.1042/bj20051645)
